Field Ki: reported value for Carbonic anhydrase 4 (Bos taurus); entries drawn from several documents.
Numbers only; they are read as nM.

Past entries and their recorded results:
NS(=O)(=O)c1nnc(NS(=O)(=O)c2cccc(C(=O)OCCO)c2)s1 = 8
NS(=O)(=O)c1nnc(NS(=O)(=O)c2c(F)c(F)cc(F)c2F)s1 = 15

[Q] Form entry - test system: Carbonic anhydrase 4 (Bos taurus); read-out: Ki; molecule: `C[C@H](CCC(=O)OCc1ccc(S(N)(=O)=O)cc1)[C@H]1CC[C@H]2[C@@H]3[C@H](O)C[C@@H]4C[C@H](O)CC[C@]4(C)[C@H]3C[C@H](O)[C@]12C`
Sequence (Q95323 whole entry): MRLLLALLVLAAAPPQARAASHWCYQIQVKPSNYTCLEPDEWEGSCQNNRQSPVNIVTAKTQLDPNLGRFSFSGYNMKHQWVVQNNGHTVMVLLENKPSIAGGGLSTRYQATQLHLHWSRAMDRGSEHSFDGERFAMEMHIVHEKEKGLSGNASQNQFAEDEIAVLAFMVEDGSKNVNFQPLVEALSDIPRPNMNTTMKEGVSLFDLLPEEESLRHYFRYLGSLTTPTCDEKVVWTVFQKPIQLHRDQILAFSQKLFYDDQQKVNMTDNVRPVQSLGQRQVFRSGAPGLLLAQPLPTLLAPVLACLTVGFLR
[A] 280

[Q] Can you check `NS(=O)(=O)c1nc2ccc(NC(=O)C(F)(F)C(F)(F)C(F)(F)C(F)(F)C(F)(F)C(F)(F)C(F)(F)C(F)(F)F)cc2s1` next?
[A] 9
